For each record, write down the corresponding growth.
- Test system: TK-10 renal
- ASSAY_PROCEDURE: NCI-60 one-dose screen, 48 h (100 = growth as untreated, 0 = no growth, -100 = all killed)
- DETAILS: 10 µM unless noted
This is part of a sample that, as a whole, favours compounds with a hit. Of some 83,000 tested, about 20% had one in any assay.
Answer in %, number only, no unit symbol.

Enquiry: Entry under review: `Cn1ccnc1C(=O)/C=C/c1ccc(NC(=O)Nc2ccccc2)cc1` . Reported growth?
Return: 85.9

Enquiry: Request the reported growth associated with `COc1ccc(C(=O)/C=C/c2ccc(Oc3nc(NCCO)nc(N4CCOCC4)n3)c(OC)c2)cc1`
Return: 140

Enquiry: Consider the compound COC1CCN(Cc2ccc3c(NNC(=O)c4cnccn4)nc4cc(F)ccc4n23)C1 (centres undefined) and give its measured growth.
Return: 40.8

Enquiry: Sample `COc1ccc2[nH]cc(-c3cc(N)n4nc(-c5c[nH]c6ccc(OC)cc56)cc4n3)c2c1` — what was its growth?
Return: 16.5

Enquiry: Request the reported growth associated with `CC(=O)Nc1cc(F)cc(-c2ccc3[nH]cc(-c4ccccc4)c3n2)c1`
Return: 48.6

Enquiry: Consider the compound shown here: `Cc1nc(-c2cc3ccccc3oc2=O)ccc1C(=O)/C=C/c1ccc(Cl)c(Cl)c1` What is its recorded growth?
Return: 117

Enquiry: Entry `N#Cc1c(-c2ccc(Cl)cc2)nc2c(-c3ccccc3)c(Nc3ccccc3)nn2c1N` has what growth?
Return: 139

Enquiry: Sample `NS(=O)(=O)c1cccc(Nc2nc(SCC(=O)c3ccc(Br)cc3)nc3ccccc23)c1` — what was its growth?
Return: 124

Enquiry: Value lookup for growth; key = O=C1C2=C(C(=O)c3c(O)cccc31)C(c1ccco1)c1sc(=O)[nH]c1S2 (centres undefined)
Return: 146

Measured values drawn from PubChem BioAssay (NCI) for this set.
